Test: Visual solubility assessment of Form B at room temperature
Type: physicochemical
Settings: organic solvent or mixture, thermodynamic from solid; Ethyl Acetate, room temperature
PARAMETER MEASURED: solubility at 3 min

Report solubility at 3 min, nothing else, for this molecule: C[C@@H]1CN(Cc2cccc(OC(F)(F)F)c2)CCN1C(=O)Oc1cncc(C(N)=O)c1 [Form B]
> 800 mg/mL

====

Experiment: Solubility of Form A in physiologically relevant media (37° C.)
Assay type: physicochemical
Settings: HCl/NaCl buffer pH 1.0, simulated gastric fluid, thermodynamic from solid, pH 1.0 HCl/NaCl buffer, final measured pH 1.47
PARAMETER MEASURED: solubility

Quickly give me recorded solubility for C[C@@H]1CN(Cc2cccc(OC(F)(F)F)c2)CCN1C(=O)Oc1cncc(C(N)=O)c1 [Form A]
> 20 mg/mL
